Where these numbers come from: patent US20200369728A1

Consider the following molecules and their measured caspase 0.3 μM readings.
Tested on: Caspase 3
Assay: Caspase 3 detection assay in SJSA1 cells
Type: cell-based
Settings: 0.3 μM, SJSA1, 48 h, Caspase 3 activation over DMSO-treated cells
Bridge positions count the residues as written; N and C are the ends. Square brackets hold non-standard residues; d marks the D form. Peptide text beside a SMILES is read from it. R8 = C=CCCCCCC[C@@](C)(N)C(=O)O; hLeu = CC(C)CC[C@H](N)C(=O)O; S5 = C=CCCC[C@](C)(N)C(=O)O

The reported caspase 0.3 μM value, Caspase 3, for CC(=O)N[C@@H](CC(C)C)C(=O)N[C@H](C(=O)N[C@@H](Cc1ccccc1)C(=O)N[C@]1(C)CCCCCC/C=C/CCC[C@@](C)(C(=O)N[C@@H](CO)C(=O)N[C@@H](C)C(=O)N[C@@H](C)C(N)=O)NC(=O)[C@H](CCC(C)C)NC(=O)[C@H](CCC(N)=O)NC(=O)[C@H](C)NC(=O)[C@H](Cc2c[nH]c3ccccc23)NC(=O)[C@H](Cc2ccc(O)cc2)NC(=O)[C@H](C)NC1=O)[C@@H](C)O [compound 115] (Ac-LTF[R8]AYWAQ[hLeu][S5]SAA-NH2; staple (E) 4-11) reads 1

The reported caspase 0.3 μM value, Caspase 3, for CC(=O)N[C@@H](CC(C)C)C(=O)N[C@H](C(=O)N[C@@H](Cc1ccccc1)C(=O)N[C@]1(C)CCCCCCC=CCCC[C@@](C)(C(=O)N[C@@H](CO)C(=O)N[C@@H](C)C(=O)N[C@@H](C)C(N)=O)NC(=O)[C@H](CC2CCCCC2)NC(=O)[C@H](CCC(N)=O)NC(=O)[C@H](C)NC(=O)[C@H](Cc2c[nH]c3ccccc23)NC(=O)[C@H](Cc2ccc(O)cc2)NC(=O)[C@H](CCC(=O)O)NC1=O)[C@@H](C)O (single isomer, unassigned) reads 1

###

Assay: Circular dichroism (CD) analysis of alpha-helicity
Format: physicochemical
Details: 50% TFE
Bridge positions count the residues as written; N and C are the ends. Square brackets hold non-standard residues; d marks the D form. Peptide text beside a SMILES is read from it. R8 = C=CCCCCCC[C@@](C)(N)C(=O)O; S5 = C=CCCC[C@](C)(N)C(=O)O
PROPERTY: % Helix 50% TFE compared to 50% TFE parent (CD) (%)
Respond with the bare value in %.

1) CC(=O)N[C@@H](CC(C)C)C(=O)N[C@H](C(=O)N[C@@H](Cc1ccccc1)C(=O)N[C@]1(C)CCCCCCC=CCCC[C@@](C)(C(=O)N[C@@H](CO)C(=O)N[C@@H](C)C(=O)N[C@@H](C)C(N)=O)NC(=O)[C@H](CC(C)C)NC(=O)[C@H](CCC(N)=O)NC(=O)[C@H](C)NC(=O)[C@H](Cc2c[nH]c3ccccc23)NC(=O)[C@H](Cc2ccc(O)cc2)NC(=O)[C@H](C)NC1=O)[C@@H](C)O [compound 11] (Ac-LTF[R8]AYWAQL[S5]SAA-NH2; staple 4-11) : 106.1

Note: attention shifts to another entry.
Lookup result for CC(=O)N[C@@H](CC(C)C)C(=O)N[C@H](C(=O)N[C@@H](Cc1ccccc1)C(=O)N[C@]1(C)CCCCCCC=CCCC[C@@](C)(C(=O)N[C@@H](CO)C(=O)N[C@@H](C)C(=O)N[C@@H](Cc2ccccc2)C(N)=O)NC(=O)[C@H](CC(C)C)NC(=O)[C@H](CCC(N)=O)NC(=O)[C@H](C)NC(=O)[C@H](Cc2c[nH]c3ccccc23)NC(=O)[C@H](Cc2ccc(O)cc2)NC(=O)[C@H](C)NC1=O)[C@@H](C)O [compound 7] (Ac-LTF[R8]AYWAQL[S5]SAF-NH2; staple 4-11) ; measured % Helix 50% TFE compared to 50% TFE parent (CD): 137.3
